Please go through the items and note down their GI50.
Tested on: TK-10
assay.overview: NCI tumour cell line growth inhibition, 48 h
Calls of active or inactive are those of the source. No stated cut-off is given here; in the data, active = GI50 up to about 1.1 µM and inactive = higher.

Would you kindly share the measured GI50 for CN(C)CCOC1(Cc2ccc(Cl)cc2Cl)CCC(C(C)(C)C)CC1 (stereo not given) ? 2.62 µM (inactive)

Would you kindly share the measured GI50 for CC1=CC(C/C(C)=C/COc2ccc3ccc(=O)oc3c2)OC1=O (stereo not given) ? > 100 µM (inactive)

Would you kindly share the measured GI50 for C=C(/C=C/C=C(/CCC=C(C)C)COC(C)=O)[C@@H]1CC[C@]2([C@H](CCCO)/C(=C(/C)C=O)CC[C@]2(C)O)[C@@H]1O ? 14.2 µM (inactive)

Would you kindly share the measured GI50 for O=C1CCCC2=C1CC1=C(CCCC1=O)N2c1cccc([N+](=O)[O-])c1 ? > 100 µM (inactive)

Would you kindly share the measured GI50 for Cn1c2ccccc2c(=O)c2cccc(C(=O)NCC(=O)O)c21 ? > 100 µM (inactive)

###

Test system: DU-145
assay.overview: NCI tumour cell line growth inhibition, 48 h
The source made the active and inactive calls. Cut-off read from the data, not from the text of the source: active = GI50 up to about 1.1 µM and inactive = higher.
Please go through the items and note down their GI50.

Would you kindly share the measured GI50 for COc1ccc(/N=N/C(=N/NC(=O)c2ccccc2)c2ccc(N(CCC#N)CCC#N)cc2C)cc1 ? 81.3 µM (inactive)

Would you kindly share the measured GI50 for COc1ccc2oc(=O)cc(C)c2c1 ? > 100 µM (inactive)

Would you kindly share the measured GI50 for CCCC(=O)Nc1cc2c3c(c1)CCCN3CCC2 ? > 10 µM (inactive)

Would you kindly share the measured GI50 for COC(=O)N[C@H](C(=O)O)C(C)O[Si](C)(C)C(C)(C)C (stereo partly specified) ? > 100 µM (inactive)

Would you kindly share the measured GI50 for Cc1ccc(S(=O)(=O)CN2C(=O)C(c3ccccc3)(c3ccccc3)C23OC(c2ccc(Cl)cc2)=CC3=O)cc1 (stereo unspecified) ? > 10 µM (inactive)

Would you kindly share the measured GI50 for COc1ccc2c(c1)c1c(n2CCN2CCOCC2)-c2cccc(OC)c2CC1 ? 62.4 µM (inactive)

Would you kindly share the measured GI50 for C/C(Nc1ccc(F)cc1)=C1/CCOC1=O ? > 100 µM (inactive)

Would you kindly share the measured GI50 for Cn1cccc1-c1ccc(-c2ccc(CO)[se]2)[se]1 ? 17.5 µM (inactive)

Would you kindly share the measured GI50 for O=C1C(=Cc2ccccc2O)N=C(c2ccccc2)N1n1c(-c2ccccc2)nc2ccccc2c1=O ? 35.5 µM (inactive)

Would you kindly share the measured GI50 for c1ccc(-c2cc(-c3cccs3)c(-c3cccs3)s2)cc1 ? 64 µM (inactive)

Would you kindly share the measured GI50 for CC(C(=O)n1ccnc1)N1c2ccccc2Sc2ccccc21 (stereo unspecified) ? > 100 µM (inactive)

###

Tested on: SNB-19
assay.overview: NCI tumour cell line growth inhibition, 48 h
The source made the active and inactive calls. Rule as the data show it: active = GI50 up to about 1.1 µM and inactive = higher.
Would you mind answering with one of these outcomes? t (active), f (inactive)

Assay outcome for COc1cc2c(c(OC)c1OC)-c1ccc(SC)c(=O)cc1[C@@H](NC(=O)C(F)(F)F)CC2 : what was it? t

Assay outcome for CCCCCCCC1(N=[N+]=[N-])C(=O)c2ccccc2N(C)C1=O (configuration not stated) : what was it? f

Assay outcome for CN1CCn2c(Br)ccc2C1=O : what was it? f

Assay outcome for CSc1ncc2c(C#N)c3sc4ccccc4n3c(=O)c2n1 : what was it? f

Assay outcome for COc1ccc(/C=C2\S/C(=N/Nc3nc(-c4ccccc4)cs3)NC2=O)cc1OC : what was it? f

Assay outcome for O=C(O)CCC(NC(=O)c1ccc(Oc2nc3ccccc3nc2-c2ccccc2)cc1)C(=O)O (configuration not stated) : what was it? f

Assay outcome for COC1(OC)C=CC2C1C1C=CC2C1(OC)OC (configuration not stated) : what was it? f

Assay outcome for CC(C)C(NCc1c2ccccc2[n+]([O-])c2ccccc12)C(=O)O (configuration not stated) : what was it? f

Assay outcome for Cc1cccc(C)c1NC(=O)CCc1n[nH]c(=S)o1 : what was it? f

Assay outcome for O=C(NCc1ccc2ccc3cccnc3c2n1)c1ccc[n+](Cc2ccccc2)c1 : what was it? f

Assay outcome for COc1ccc(C(=O)c2sc(N(C)C)nc2-c2ccccc2)cc1 : what was it? f

Assay outcome for Cn1c2ccccc2c(=O)c2cccc(C(=O)NCC(=O)O)c21 : what was it? f

Assay outcome for CCc1c(CNc2ccc(C(=O)NC(CC(=O)O)C(=O)O)cc2)ccc2nc(N)nc(N)c12 (configuration not stated) : what was it? f

Assay outcome for CC(C)(C)OC(=O)n1c2ccccc2c2c(=O)nc(N3CCCCC3)sc21 : what was it? f

Assay outcome for COc1ccc(C(=O)C(C(=O)C(=O)Nc2ccc(Cl)c(Cl)c2)c2ccc(OC)cc2)cc1 (configuration not stated) : what was it? f

Assay outcome for O=c1c(C(c2ccc(/C=C/c3ccccc3)cc2)c2c(O)oc3ccccc3c2=O)c(O)oc2ccccc12 : what was it? f

Assay outcome for CSC(=S)CC(O)[C@@H]1CC2c3ccccc3C1c1ccccc12 (some centres not stated) : what was it? f

Assay outcome for O=C1C2c3[nH]c4ccccc4c3C3CCSCC3C2C(=O)N1c1ccccc1 (configuration not stated) : what was it? f

Assay outcome for CCOC(=O)c1csc(NC(=O)CCN2CCN(C)CC2)n1 : what was it? f

Assay outcome for COc1ccc(-c2cc(=O)c3c(OC)c(OC)c(OC)c(OC)c3o2)c(OC)c1 : what was it? f

Assay outcome for CC1=NC(=Cc2ccc(Cl)cc2)C(=O)N1n1c(-c2ccccc2)nc2ccccc2c1=O : what was it? f

Assay outcome for O=C(O)CCC1C(=O)C2CCN1CC2 (configuration not stated) : what was it? f
